- target_entity: CSNK2A2 (Homo sapiens)
- method_summary: Kinobeads two-dose competition binding: CSNK2A2
- Design: to maximize the representation of endogenous proteins; endogenous in cells
- condition_details: target CSNK2A2
measurement_kind: CATDS
Lab note: jot down the number only; don't add units.

Nc1ncnc2[nH]c(-c3ccccc3)nc12 : 0
CCN1CCN(Cc2ccc(Nc3ncc(F)c(-c4cc(F)c5nc(C)n(C(C)C)c5c4)n3)nc2)CC1 : 0.06221
CCc1cc2c(cc1N1CCC(N3CCOCC3)CC1)C(C)(C)c1[nH]c3cc(C#N)ccc3c1C2=O : 0
CN(C)C/C=C/C(=O)Nc1cc2c(Nc3ccc(F)c(Cl)c3)ncnc2cc1O[C@H]1CCOC1 : 0

Pending compound:
Recorded CATDS (compound N#CC1(c2ccc(NC(=O)c3cccnc3NCc3ccncc3)cc2)CCCC1 ): 0

* * *

- target_entity: ABL2 (Homo sapiens)
- Construct: endogenous in cells
- method_summary: Kinobeads two-dose competition binding: ABL2
- condition_details: sheet CATDS matrix 2; Gene Name ABL2
measurement_kind: CATDS
Lab note: jot down the number only; don't add units.

CC(C)c1nc(-c2cccc(NS(=O)(=O)c3c(F)cccc3F)c2)c(-c2ccnc(Nc3ccc(N4CCOCC4)nc3)n2)s1 [GSK1723980B] : 0.05939

Recorded CATDS (molecule NC[C@H](CC1CCCCC1)NC(=O)c1ccc(-c2ccnc3[nH]ccc23)s1 [GSK1581428A] ): 0

Recorded CATDS (molecule COc1ccc2ncnc(Nc3ccc(OCc4ccccc4)cc3)c2c1 [GI261520A] ): 0

Recorded CATDS (molecule CCn1c(-c2nonc2N)nc2c(C#CC(C)(C)O)nc(O[C@@H](CN)c3ccccc3)cc21 [GSK1007102B] ): 0

Recorded CATDS (molecule NCCCC(NC(=O)c1cc(Br)c(-c2ccnc3[nH]ccc23)s1)c1ccccc1 (stereo not shown) [GSK1287544A] ): 0

* * *

- target_entity: ADCK1 (Homo sapiens)
- Construct: endogenous in cells
- Sequence (Q86TW2 1-530): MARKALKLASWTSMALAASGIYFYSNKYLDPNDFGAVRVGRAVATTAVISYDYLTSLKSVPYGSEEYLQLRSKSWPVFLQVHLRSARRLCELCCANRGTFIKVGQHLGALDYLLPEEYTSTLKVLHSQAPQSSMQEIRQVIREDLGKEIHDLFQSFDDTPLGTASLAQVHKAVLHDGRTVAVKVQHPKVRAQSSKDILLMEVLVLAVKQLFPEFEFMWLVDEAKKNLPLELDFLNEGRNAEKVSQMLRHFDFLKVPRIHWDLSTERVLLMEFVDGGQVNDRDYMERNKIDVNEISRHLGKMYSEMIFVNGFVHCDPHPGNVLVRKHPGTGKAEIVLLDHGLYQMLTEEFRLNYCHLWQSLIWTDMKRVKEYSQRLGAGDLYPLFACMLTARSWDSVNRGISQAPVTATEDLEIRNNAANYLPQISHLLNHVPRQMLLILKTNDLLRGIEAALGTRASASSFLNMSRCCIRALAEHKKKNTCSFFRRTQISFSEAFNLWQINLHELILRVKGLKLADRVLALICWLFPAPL
- method_summary: Kinobeads competition binding: ADCK1
- condition_details: target ADCK1
Consider the following compounds and their measured CATDS readings.

CCc1cc2c(cc1N1CCC(N3CCOCC3)CC1)C(C)(C)c1[nH]c3cc(C#N)ccc3c1C2=O [Alectinib] : 0
CCN1CCN(Cc2ccc(Nc3ncc(F)c(-c4cc(F)c5nc(C)n(C(C)C)c5c4)n3)nc2)CC1 [Abemaciclib] : 0.02486
Nc1ncnc2[nH]c(-c3ccccc3)nc12 [AH5015_KCGS] : 0
CN(C)C/C=C/C(=O)Nc1cc2c(Nc3ccc(F)c(Cl)c3)ncnc2cc1O[C@H]1CCOC1 [Afatinib] : 0

Pending compound:
Recorded CATDS (compound N#CC1(c2ccc(NC(=O)c3cccnc3NCc3ccncc3)cc2)CCCC1 [Apatinib] ): 0

// provenance: paper PMC11062922
